# Test system: phospho-PLCγ1 in Jurkat cells
# Method Notes: ITK target modulation PLC-γ assay (phospho-PLCγ1, αCD3-stimulated Jurkat cells)
# Format: cell-based, human
# Condition: Homo sapiens, 1 hour compound incubation, αCD3 Dynabeads stimulation 8 minutes, MSD phospho-PLCγ1, read-out: PLC-γ Inhibition IC50
pIC50: −log10 of the molar value.
Record form. Attribute: pIC50. Fill in for each entry.

Find the measured pIC50 of `C=CC(=O)N(C)c1cccc(-c2cnc3[nH]cc(-c4ccnc(OC)c4)c3c2)c1` with phospho-PLCγ1 in Jurkat cells as test system.
5.30 to 6.00

Look up and report pIC50, with phospho-PLCγ1 in Jurkat cells as system, for `C=CC(=O)Nc1cccc(-c2cnc3[nH]cc(-c4cccc(C#N)c4)c3c2)c1`
5.30 to 6.00

Name the value of pIC50 reported for `C=CC(=O)Nc1cc(-c2cnc3[nH]cc(-c4ccnc(OC)c4)c3c2)cc(C(O)(CC)CC)c1` when tested on phospho-PLCγ1 in Jurkat cells.
5.30 to 6.00

With phospho-PLCγ1 in Jurkat cells as the test system, provide measured pIC50 for this molecule: `COc1cc(/C=C(\C#N)C(N)=O)cc(-c2cnc3[nH]cc(-c4ccnc(OC)c4)c3c2)c1`
< 5.30

Please look at `C=CC(=O)Nc1cccc(-c2cnc3[nH]cc(-c4ccccc4C)c3c2)c1` and tell me its recorded pIC50 on phospho-PLCγ1 in Jurkat cells.
5.30 to 6.00

Find pIC50 for `C=CC(=O)Nc1cccc(-c2cnc3[nH]cc(-c4ccnc(NC)n4)c3c2)c1` on phospho-PLCγ1 in Jurkat cells and write it down.
> 6.00

Provide phospho-PLCγ1 in Jurkat cells pIC50 reading for `C=CC(=O)Nc1cccc(-c2cnc3[nH]cc(-c4cn(C)c(=O)c5ccccc45)c3c2)c1` .
> 6.00

# lookup: phospho-PLCγ1 in Jurkat cells pIC50, key = `C=C(C)C(=O)Nc1cccc(-c2cnc3[nH]cc(-c4cccnc4)c3c2)c1`
< 5.30

Values were extracted from patent US9695200B2.
